biological target: Prothrombin (Homo sapiens); experiment: Inhibition of thrombin (unknown origin) using Boc-Val-Pro-Arg-AMC as substrate at 25 uM preincubated with protein for 15 mins followed by substrate addition measured for 10 mins by continuous fluorimetric assay relative to control
Active and inactive are the calls of the source. No cut-off for these calls is given here.
reported-endpoint: inhibition

| smiles-record | test-target | inhibition |
| --- | --- | --- |
| N=C(N)NCCC[C@H](NC(=O)c1cccs1)C(=O)N[C@@H](CCCCN)C(=O)N[C@@H](C(N)=O)c1ccc(OCc2ccc(Cl)c(Cl)c2)cc1 | Prothrombin (Homo sapiens) | inactive |
| N=C(N)NCCC[C@H](NC(=O)c1ccsc1)C(=O)N[C@@H](CCCCN)C(=O)N[C@@H](C(N)=O)c1ccc(OCc2ccccc2)cc1 | Prothrombin (Homo sapiens) | < 30% |
| N=C(N)NCCC[C@H](NC(=O)c1cccc(F)c1)C(=O)N[C@@H](CCCCN)C(=O)N[C@@H](C(N)=O)c1ccc(OCc2ccccc2)cc1 | Prothrombin (Homo sapiens) | < 30% |
| N=C(N)NCCC[C@H](NC(=O)C1CCCCC1)C(=O)N[C@@H](CCCCN)C(=O)N[C@@H](C(N)=O)c1ccc(OCc2ccccc2)cc1 | Prothrombin (Homo sapiens) | < 30% |
| CC(C)(C)c1ccc(COc2ccc([C@@H](NC(=O)[C@H](CCCCN)NC(=O)[C@H](CCCNC(=N)N)NC(=O)c3sccc3Cl)C(N)=O)cc2)cc1 | Prothrombin (Homo sapiens) | inactive |

Req: Could you share which inhibition value was measured for N=C(N)NCCC[C@H](NC(=O)c1ccccc1)C(=O)N[C@@H](CCCCN)C(=O)N[C@@H](C(N)=O)c1ccc(OCc2c(Cl)cccc2Cl)cc1 ?
Resp: < 30%

Req: Dear colleague, I am looking for the recorded inhibition of the following molecule: N=C(N)NCCC[C@H](NC(=O)c1cc2ccsc2s1)C(=O)N[C@@H](CCCCN)C(=O)N[C@@H](C(N)=O)c1ccc(OCc2ccc(C(F)(F)F)cc2)cc1
Resp: inactive

Req: Bench note: what inhibition did N=C(N)NCCC[C@H](NC(=O)c1ccccc1)C(=O)N[C@@H](CCCCN)C(=O)N[C@@H](C(N)=O)c1ccc(OCc2ccccc2Br)cc1 show?
Resp: < 30%

Req: Look at this molecule and give its reported inhibition. N=C(N)NCCC[C@H](NC(=O)C1CC1)C(=O)N[C@@H](CCCCN)C(=O)N[C@@H](C(N)=O)c1ccc(OCc2ccccc2)cc1
Resp: < 30%
